# ASSAY SYSTEM: NHERF4_1, Q86UT5-2
# Sequence (Q86UT5 other isoform, or with tags, fused parts or gaps): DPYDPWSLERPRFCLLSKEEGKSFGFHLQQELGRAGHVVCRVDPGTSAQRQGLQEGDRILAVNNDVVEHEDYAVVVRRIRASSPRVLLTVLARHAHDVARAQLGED
# ASSAY: holdup assay
# Parameters: key: below the threshold = too weak to quantify, mostly under pKd 3.1 to 4
# COND: plain residues with an end cap or a label only (N-terminal biotin on a linker: ahx)
MEASURED PARAMETER: pKd

# annotated cases, reported pKd shown
{"BINDER": "NRKREIFSNF [NHERF2, Q15599]", "pKd": "below the threshold"}
{"BINDER": "ESLLLGPSNF [SHROOM4, Q9ULL8]", "pKd": "below the threshold"}
{"BINDER": "PSASCAVTAA [PDLIM4, P50479;P50479-2]", "pKd": "below the threshold"}
{"BINDER": "LSDPSVSTVV [GRIN1, Q05586;Q05586-2]", "pKd": "below the threshold"}
{"BINDER": "RAVEEEESRF [PSCDBP, O60759]", "pKd": "below the threshold"}

Problem: # lookup: pKd of SDSSGQEYSL [KCTD3, Q9Y597]
Result: below the threshold
